Measured on: UniProt P34972
Decision: Ki beneath 1000 nM gives Criterion met; Ki meeting or exceeding 1000 nM gives Criterion not met.

For orientation, consider the following solved cases.
Lookup: For CCCCCCC(C)(C)c1cc(NC(C)=O)c2c(c1)OC(C)(C)[C@@H]1CCC(C)=C[C@@H]21 , is the recorded Ki below the cut-off of 1000 nM?
Found: Criterion met

Lookup: Does the reported Ki of the following molecule sit strictly below 1000 nM? CCCCCc1cc(NC(=O)OC)c2c(c1)OC(C)(C)[C@@H]1CCC(C)=C[C@@H]21
Found: Criterion not met

Lookup: Quick check: Ki of CCCCCc1cc(CNC(C)=O)c2c(c1)OC(C)(C)[C@@H]1CCC(C)=C[C@@H]21 under 1000 nM?
Found: Criterion not met

Lookup: Could you please tell me whether Ki recorded for CCCCCc1cc(CNC(N)=O)c2c(c1)OC(C)(C)[C@@H]1CCC(C)=C[C@@H]21 is less than 1000 nM?
Found: Criterion met

Next:
Lookup: Dear reviewer, please state whether CCCCCc1cc2c(c([S+](C)[O-])c1)[C@@H]1C=C(C)CC[C@H]1C(C)(C)O2 (single isomer, unassigned; diastereomer A) has Ki strictly beneath 1000 nM.
Found: Criterion not met

Lookup: Is the reported Ki for CCCCCCC(C)(C)c1cc(N)c2c(c1)OC(C)(C)[C@@H]1CCC(C)=C[C@@H]21 strictly below 1000 nM?
Found: Criterion met

Lookup: For this molecule, is Ki lower than 1000 nM? CCCCCc1cc(NC(=O)CN(C)C)c2c(c1)OC(C)(C)[C@@H]1CCC(C)=C[C@@H]21
Found: Criterion not met

Lookup: Determine if CCCCCc1cc(NC(N)=O)c2c(c1)OC(C)(C)[C@@H]1CCC(C)=C[C@@H]21 shows Ki strictly lower than 1000 nM.
Found: Criterion not met

* * *

Measured on: Cannabinoid receptor 2 (Homo sapiens)
Quantity: pKi
# pKi: negative log10 of molar concentration; output just the value

Lookup: pKi / Cannabinoid receptor 2 (Homo sapiens) / CCCCCCC(C)(C)c1cc(NS(C)(=O)=O)c2c(c1)OC(C)(C)[C@@H]1CCC(C)=C[C@@H]21
Found: 6.59

Okay, now this compound:
Lookup: For the record CCCCCCC(C)(C)c1cc(O)c2c(c1)OC(C)(C)[C@@H]1CCC(C)=C[C@@H]21 , what value of pKi is listed for Cannabinoid receptor 2 (Homo sapiens)?
Found: 9.70

* * *

pKi: −log10 of the molar value.
// each record: one item and its pKi for Cannabinoid receptor 1 (Homo sapiens, UniProt P21554)

These recorded examples may help you get a feel for the data.
Lookup: // lookup pKi | system=Cannabinoid receptor 1 (Homo sapiens, UniProt P21554) | key= CCCCCCC(C)(C)c1cc(N)c2c(c1)OC(C)(C)[C@@H]1CCC(C)=C[C@@H]21
Found: 7.93

Lookup: Field: pKi (Cannabinoid receptor 1 (Homo sapiens, UniProt P21554)). Entry: CCCCCCC(C)(C)c1cc(NC(C)=O)c2c(c1)OC(C)(C)[C@@H]1CCC(C)=C[C@@H]21
Found: 5.87

Lookup: // lookup pKi | system=Cannabinoid receptor 1 (Homo sapiens, UniProt P21554) | key= CCCCCc1cc2c(c(C(N)=O)c1)[C@@H]1C=C(C)CC[C@H]1C(C)(C)O2
Found: < 5.52

Lookup: Tell me reported pKi for CCCCCc1cc(NC(=O)OC)c2c(c1)OC(C)(C)[C@@H]1CCC(C)=C[C@@H]21 , tested with Cannabinoid receptor 1 (Homo sapiens, UniProt P21554).
Sequence (P21554 whole entry): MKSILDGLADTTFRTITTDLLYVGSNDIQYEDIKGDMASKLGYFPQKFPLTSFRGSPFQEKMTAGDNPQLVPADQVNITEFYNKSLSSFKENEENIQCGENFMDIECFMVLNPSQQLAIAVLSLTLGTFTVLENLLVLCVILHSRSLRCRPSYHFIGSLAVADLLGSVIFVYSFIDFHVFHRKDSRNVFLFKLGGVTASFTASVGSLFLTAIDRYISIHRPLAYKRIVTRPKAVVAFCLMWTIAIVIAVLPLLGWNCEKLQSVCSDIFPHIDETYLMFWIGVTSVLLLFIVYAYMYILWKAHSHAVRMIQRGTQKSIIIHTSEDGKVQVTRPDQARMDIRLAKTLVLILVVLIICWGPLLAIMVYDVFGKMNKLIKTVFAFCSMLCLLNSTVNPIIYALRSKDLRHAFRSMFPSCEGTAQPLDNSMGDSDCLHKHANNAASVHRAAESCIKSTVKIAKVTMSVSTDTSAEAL
Found: < 5.52

Now look at this one.
Lookup: For Cannabinoid receptor 1 (Homo sapiens, UniProt P21554), provide pKi of CCCCCCC(C)(C)c1cc(C#N)c2c(c1)OC(C)(C)[C@@H]1CCC(C)=C[C@@H]21 please.
Found: 7.17

* * *

Measured on: Cannabinoid receptor 2 (Homo sapiens, UniProt P34972)
Sequence (P34972 whole entry): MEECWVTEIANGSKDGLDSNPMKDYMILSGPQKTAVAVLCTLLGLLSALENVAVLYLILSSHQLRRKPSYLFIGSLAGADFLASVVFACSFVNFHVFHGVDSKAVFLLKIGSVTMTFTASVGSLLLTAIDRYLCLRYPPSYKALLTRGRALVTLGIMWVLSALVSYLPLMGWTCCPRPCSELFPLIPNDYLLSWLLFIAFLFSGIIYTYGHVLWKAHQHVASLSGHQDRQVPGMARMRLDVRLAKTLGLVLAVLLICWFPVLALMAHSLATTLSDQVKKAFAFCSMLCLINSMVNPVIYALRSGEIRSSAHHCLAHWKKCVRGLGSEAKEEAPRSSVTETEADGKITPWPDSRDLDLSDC
Quantity: Ki (nM)
Give the number; nM is assumed, so skip it.

Lookup: Field request: Ki | item: CCCCCc1cc2c(c(C(=O)NC)c1)[C@@H]1C=C(C)CC[C@H]1C(C)(C)O2
Found: 1260

Lookup: Reported Ki, molecule CCCCCc1cc(N)c2c(c1)OC(C)(C)[C@@H]1CCC(C)=C[C@@H]21 : ____
Found: 215

Lookup: Name the reported Ki value associated with the molecule CCCCCCC(C)(C)c1cc(C#N)c2c(c1)OC(C)(C)[C@@H]1CCC(C)=C[C@@H]21
Found: 5.3

Lookup: If you can, please state the reported Ki value of CCCCCc1cc2c(c(C(N)=O)c1)[C@@H]1C=C(C)CC[C@H]1C(C)(C)O2 .
Found: 2190

Lookup: What does the record list as Ki for CCCCCc1cc2c(c(C(=O)N(C)C)c1)[C@@H]1C=C(C)CC[C@H]1C(C)(C)O2 ?
Found: 1210

Lookup: What Ki value was documented for this molecule, CCCCCCC(C)(C)c1cc(NC(=O)NC)c2c(c1)OC(C)(C)[C@@H]1CCC(C)=C[C@@H]21 ?
Found: 257

Lookup: Could you tell me which Ki is on file for CCCCCc1cc(NC(=O)NC)c2c(c1)OC(C)(C)[C@@H]1CCC(C)=C[C@@H]21 ?
Found: 2050

Lookup: Given the entry CCCCCc1cc2c(c(SC)c1)[C@@H]1C=C(C)CC[C@H]1C(C)(C)O2 , report its measured Ki.
Found: 469

Lookup: Param item = CCCCCc1cc(NC(=O)c2ccncc2)c2c(c1)OC(C)(C)[C@@H]1CCC(C)=C[C@@H]21 ; retrieve measured Ki.
Found: 1770

* * *

Measured on: UniProt P21554
pKi: −log10 of the molar value.
Quantity: pKi

Lookup: Endpoint output: pKi of CCCCCc1cc(NC(=O)NC)c2c(c1)OC(C)(C)[C@@H]1CCC(C)=C[C@@H]21 . Value?
Found: < 5.52

Lookup: Reported pKi for CCCCCCC(C)(C)c1cc(O)c2c(c1)OC(C)(C)[C@@H]1CCC(C)=C[C@@H]21 : what is it?
Found: 9.62

Lookup: I am curious: what pKi value has been reported for CCCCCc1cc(NC(N)=O)c2c(c1)OC(C)(C)[C@@H]1CCC(C)=C[C@@H]21 ?
Found: < 5.52

Lookup: Could you tell me which pKi is on file for CCCCCc1cc(C#N)c2c(c1)OC(C)(C)[C@@H]1CCC(C)=C[C@@H]21 ?
Found: 5.76

Lookup: If you can, please state the reported pKi value of CCCCCc1cc2c(c(N(C)C)c1)[C@@H]1C=C(C)CC[C@H]1C(C)(C)O2 .
Found: < 5.52

# context switch: different molecule, same pKi
Lookup: Please report the recorded pKi for CCCCCc1cc2c(c(C(=O)NC)c1)[C@@H]1C=C(C)CC[C@H]1C(C)(C)O2 .
Found: < 5.52

* * *

The compounds below have reported Ki for Cannabinoid receptor 1 (Homo sapiens, UniProt P21554).

Lookup: Give the reported Ki for CCCCCc1cc(NC(C)=O)c2c(c1)OC(C)(C)[C@@H]1CCC(C)=C[C@@H]21 (system: Cannabinoid receptor 1 (Homo sapiens, UniProt P21554)).
Found: > 3 µM

Lookup: Reported Ki for Cannabinoid receptor 1 (Homo sapiens, UniProt P21554), given CCCCCc1cc2c(c(C(=O)NC(CO)CO)c1)[C@@H]1C=C(C)CC[C@H]1C(C)(C)O2 ?
Found: > 3 µM

More entries:
Lookup: Tell me reported Ki for CCCCCCC(C)(C)c1cc(NC(=O)NC)c2c(c1)OC(C)(C)[C@@H]1CCC(C)=C[C@@H]21 , tested with Cannabinoid receptor 1 (Homo sapiens, UniProt P21554).
Found: 0.333 µM

Lookup: What reported Ki corresponds to CCCCCc1cc2c(c([S+](C)[O-])c1)[C@@H]1C=C(C)CC[C@H]1C(C)(C)O2 (single isomer, unassigned; diastereomer B) on Cannabinoid receptor 1 (Homo sapiens, UniProt P21554)?
Found: > 3 µM

Lookup: What reported Ki corresponds to CCCCCc1cc(CN)c2c(c1)OC(C)(C)[C@@H]1CCC(C)=C[C@@H]21 on Cannabinoid receptor 1 (Homo sapiens, UniProt P21554)?
Found: > 3 µM

Lookup: Lab note: need Ki with Cannabinoid receptor 1 (Homo sapiens, UniProt P21554) for entry CCCCCCC(C)(C)c1cc(NS(C)(=O)=O)c2c(c1)OC(C)(C)[C@@H]1CCC(C)=C[C@@H]21 , please look it up.
Found: 1.84 µM

Lookup: Cannabinoid receptor 1 (Homo sapiens, UniProt P21554) / Ki / CCCCCc1cc2c(c(SC)c1)[C@@H]1C=C(C)CC[C@H]1C(C)(C)O2 : value?
Found: 0.955 µM

Lookup: GET /values?readout=Ki&system=Cannabinoid receptor 1 (Homo sapiens, UniProt P21554)&item= CCCCCc1cc2c(c([S+](C)[O-])c1)[C@@H]1C=C(C)CC[C@H]1C(C)(C)O2 (single isomer, unassigned; diastereomer A)
Found: > 3 µM
